Measured EC50, listed per entry for reference.
Test system: HIV-1 Y188L
MEASUREMENT DESCRIPTION: microbe, parasite or virus in culture
Assay type: cell-based, human immunodeficiency virus type 1 (HIV-1)
EXPERIMENTAL PARAMETERS: Human immunodeficiency virus 1, read-out: EC50 Y188L (nM)

Worked cases, EC50 given:
Cc1cc(C)c(Oc2nc(Nc3ccc(C#N)c(C(F)(F)F)c3)nc3[nH]cnc23)c(C)c1 > 100 nM
Cc1cc(C)c(Sc2nc(Nc3ccc(C#N)cc3)nc3c(Cl)c[nH]c23)c(C)c1 10 to 100 nM
Cc1cc(C)c(Oc2nc(Nc3ccc(C(=O)O)cc3)nc3[nH]cnc23)c(C)c1 > 100 nM

# context switch: different molecule, same EC50
The reported value for `CCn1ccc2c(Oc3c(C)cc(C#N)cc3C)nc(Nc3ccc(C#N)cc3)nc21` in terms of EC50 is 10 to 100 nM

====

Test system: HIV-1 L1001-K103N
MEASUREMENT DESCRIPTION: microbe, parasite or virus in culture
Assay type: cell-based, human immunodeficiency virus type 1 (HIV-1)
EXPERIMENTAL PARAMETERS: Human immunodeficiency virus 1, read-out: EC50 L1001-K103N (nM), L1001-K103N mutant
In this section we review reported EC50 values for a set of molecules.

Value of measured EC50 for the entry `Cc1cc(C#N)cc(C)c1Oc1nc(Nc2ccc(C#N)cc2)nc2cc[nH]c12` : < 10 nM

The measured EC50 associated with `COc1ccc(Nc2nc(Oc3c(C)cc(C)cc3C)c3nc[nH]c3n2)cc1` reads > 100 nM

Record `Cc1cc(C)c(Oc2nc(Nc3ccc(S(N)(=O)=O)cc3)nc3[nH]cnc23)c(C)c1` . Reported EC50: > 100 nM

Entry `Cc1cc(Br)cc(C)c1Oc1nc(Nc2ccc(C#N)cc2)nc2ccn(Cc3ccccc3)c12` — recorded EC50 = > 100 nM

Query `CC(=O)c1cc(C)c(Oc2nc(Nc3ccc(C#N)cc3)nc3cc[nH]c23)c(C)c1` yields EC50 of < 10 nM

The measured EC50 associated with `Cc1cc(C)c(Oc2nc(Nc3cccc(C#N)c3)nc3[nH]cnc23)c(C)c1` reads > 100 nM

# EC50 of `Cc1ccc(Oc2nc(Nc3ccc(C#N)cc3)nc3[nH]ccc23)c(C)c1` = > 100 nM

EC50 for `Cc1cc(C2CC2)cc(C)c1Oc1nc(Nc2ccc(C#N)cc2)nc2[nH]ccc12` is 10 to 100 nM

====

# EC50 values compiled below
Test system: HIV-1 Y181C
MEASUREMENT DESCRIPTION: microbe, parasite or virus in culture
Assay type: cell-based, human immunodeficiency virus type 1 (HIV-1)
EXPERIMENTAL PARAMETERS: Human immunodeficiency virus 1, read-out: EC50 Y181C (nM), Y181C mutant

A selection of reference data follows.
MOLECULE	ASSAYED TARGET	EC50
Cc1cc(C)c(Oc2nc(Nc3ccc(C#N)cc3)nc3ccn(Cc4ccccc4)c23)c(C)c1 [Cpd 64]	HIV-1 Y181C	10 to 100 nM
CCCc1nn(C)c2c(Oc3c(C)cc(C)cc3C)nc(Nc3ccc(C#N)cc3)nc12 [Cpd 43]	HIV-1 Y181C	10 to 100 nM
Cc1cc(Br)cc(Cl)c1Oc1nc(Nc2ccc(C#N)cc2)nc2c1ccn2Cc1ccccc1 [Cpd 8]	HIV-1 Y181C	> 100 nM
Cc1cc(Cl)cc(C)c1Oc1nc(Nc2ccc(C#N)cc2)nc2cc[nH]c12 [Cpd 66]	HIV-1 Y181C	< 10 nM
Cc1cc(C)c(Oc2nc(Nc3ccc(C#N)cc3)nc3[nH]cnc23)c(C)c1 [Cpd 5]	HIV-1 Y181C	< 10 nM
Cc1cc(C2CC2)cc(C)c1Oc1nc(Nc2ccc(C#N)cc2)nc2[nH]ccc12 [Cpd 33]	HIV-1 Y181C	10 to 100 nM
CC(=O)c1cc(C)c(Oc2nc(Nc3ccc(C#N)cc3)nc3c(Cl)c[nH]c23)c(C)c1 [Cpd 67]	HIV-1 Y181C	< 10 nM
Cc1ccc2ccccc2c1Nc1nc(Nc2ccc(C#N)cc2)nc2[nH]cnc12 [Cpd 32]	HIV-1 Y181C	10 to 100 nM

// next entry
Record CCn1ccc2c(Oc3c(C)cc(C#N)cc3C)nc(Nc3ccc(C#N)cc3)nc21 [Cpd 26] has HIV-1 Y181C EC50 equal to 10 to 100 nM

====

Catalogue of EC50 readings, one per entry.
Test system: HIV-1 L1001-K103N
MEASUREMENT DESCRIPTION: microbe, parasite or virus in culture
Assay type: cell-based, human immunodeficiency virus type 1 (HIV-1)
EXPERIMENTAL PARAMETERS: Human immunodeficiency virus 1, read-out: EC50 L1001-K103N (nM), L1001-K103N mutant

Cc1cc(C)c(Oc2nc(Nc3ccc(F)cc3)nc3[nH]cnc23)c(C)c1 10 to 100 nM
COc1cc(C)cc(OC)c1Oc1nc(Nc2ccc(C#N)cc2)nc2[nH]cnc12 > 100 nM

The value of EC50 measured for the compound `CC(=O)c1cc(C)c(Oc2nc(Nc3ccc(C#N)cc3)nc3ccn(Cc4ccccc4)c23)c(C)c1` turned out to be 10 to 100 nM

Per the records, this compound ( `Cc1cc(C2CC2)cc(C)c1Oc1nc(Nc2ccc(C#N)cc2)nc2[nH]cnc12` ) has EC50 equal to 10 to 100 nM

EC50 in this record for `Cc1cc(C#N)cc(C)c1Oc1nc(Nc2ccc(C#N)cc2)nc2ccn(C)c12` : < 10 nM

For reference, reported EC50 for `Cc1cc(C)c(Sc2nc(Nc3ccc(C#N)cc3)nc3[nH]ccc23)c(C)c1` stands at > 100 nM

response.value for `Cc1ccc2ccccc2c1Nc1nc(Nc2ccc(C#N)cc2)nc2[nH]cnc12` (field: EC50) = > 100 nM

Lab note: measured EC50 of `Cc1cc(C)c(Nc2nc(Nc3ccc(C#N)cc3)nc3[nH]cnc23)c(C)c1` was 10 to 100 nM

Query `Cc1cc(C)c(Oc2nc(Nc3ccc(C#N)cc3)nc3[nH]cnc23)c(C)c1` yields EC50 of < 10 nM

====

Collected EC50 values appear next to each entry.
Test system: HIV-1 Y188L
MEASUREMENT DESCRIPTION: microbe, parasite or virus in culture
Type: cell-based, human immunodeficiency virus type 1 (HIV-1)
EXPERIMENTAL PARAMETERS: Human immunodeficiency virus 1, read-out: EC50 Y188L (nM)

MOLECULE	ASSAYED TARGET	EC50
Cc1cc(C)c(Sc2nc(Nc3ccc(C#N)cc3)nc3c(Br)c[nH]c23)c(C)c1 [Cpd 55]	HIV-1 Y188L	10 to 100 nM

Reported EC50 of Cc1cc(Br)cc(C)c1Oc1nc(Nc2ccc(C#N)cc2)nc2ccn(Cc3ccccc3)c12 [Cpd 58] : > 100 nM

Entry under test: CCN(c1ccc(C#N)cc1)c1nc(Oc2c(C)cc(C#N)cc2C)c2c(ccn2CC)n1 [Cpd 46] . Its EC50 was > 100 nM

Just so you know, measured EC50 for Cc1cc(C)c(Nc2nc(Nc3ccc(C#N)cc3)nc3[nH]cnc23)c(C)c1 [Cpd 23] came out at < 10 nM

====

Tested on: wild type HIV-1
MEASUREMENT DESCRIPTION: microbe, parasite or virus in culture
Format: cell-based, human immunodeficiency virus type 1 (HIV-1)
EXPERIMENTAL PARAMETERS: read-out: EC50 WT; wild-type HIV-1
MEASURED METRIC: EC50

Recorded EC50 (molecule `Cc1cc(C)c(Oc2nc(Nc3ccc(C#N)cc3)nc3[nH]cnc23)c(C)c1` ): < 10 nM

====

Tested on: HIV-1 Y188L
MEASUREMENT DESCRIPTION: microbe, parasite or virus in culture
Type: cell-based, human immunodeficiency virus type 1 (HIV-1)
EXPERIMENTAL PARAMETERS: Human immunodeficiency virus 1, read-out: EC50 Y188L (nM)
Reported EC50 values are given for each entry in this list.

Cc1cc(Br)cc(Cl)c1Oc1nc(Nc2ccc(C#N)cc2)nc2c1ccn2Cc1ccccc1 > 100 nM
Cc1cc(C#N)cc(C)c1Oc1nc(Nc2ccc(C#N)cc2)nc2c1ccn2C < 10 nM
Cc1cc(C2CC2)cc(C)c1Oc1nc(Nc2ccc(C#N)cc2)nc2cc[nH]c12 < 10 nM
Cc1cc(C2CC2)cc(C)c1Oc1nc(Nc2ccc(C#N)cc2)nc2[nH]ccc12 10 to 100 nM
Cc1ccc2cccc(Nc3nc(Nc4ccc(C#N)cc4)nc4[nH]cnc34)c2n1 > 100 nM

The molecule `N#Cc1ccc(Nc2nc(Nc3ccc(C#N)cc3)c3nc[nH]c3n2)cc1` showed EC50 equal to > 100 nM
